Tested on: 697B cells, BCR-induced NF-kB luciferase reporter luminescence
test_method_notes: inhibitors of BCR-induced NF-kB activation, dose response, 697B cells, luciferase luminescence (AID 489023)
Calls of active or inactive are those of the source. How the calls were made is not given here.
metric: IC50

State the recorded IC50 for this entry: "CC(=O)Nc1ccc(Nc2nc(-c3sc(NC(C)=O)nc3C)cs2)cc1" 2.12 µM

Item "COC(=O)[C@@H]1Cc2c([nH]c3ccccc23)C(C)(C)N1C(=O)CCl" has what recorded IC50? 1.12 µM

Returns the measured IC50 for the input compound. Input: CCC(CO)Oc1cc(NCc2ccccc2O)c2ncn(C(C)C)c2c1 (stereo unspecified) > 80 µM (inactive)

Param item = "Cc1cc(N(C)C)ccc1N=Nc1ccc(N)cc1" ; retrieve measured IC50. 61.1 µM (inactive)

Tell me the measured IC50 of "Cc1cccc(C(=O)Nc2ccc(CC(=O)O)cc2)c1" , please. 24.1 µM (inactive)

# IC50 lookup, item "CCOC(=O)c1nn(-c2ccccc2)c(C#N)c1NC(=O)c1nn(CC)cc1Br" > 80 µM (inactive)

Item "COc1cc(OC)c(/C=N/NC(N)=S)cc1Br" has what recorded IC50? 34.2 µM (inactive)

Entry under review: "COc1ccc(C(=O)N/N=C/c2sc(N3CCOCC3)nc2-c2ccccc2)cc1OC" . Reported IC50? 14.4 µM

// lookup IC50 for "C/C(=N\Nc1nc(Nc2ccccc2)nc(N2CCOCC2)n1)c1cccs1" 8.71 µM

Requested field: IC50. Item: "COc1ccc(NS(=O)(=O)c2cc(NC(=O)c3cc(=O)c4ccccc4o3)ccc2OC)cc1" > 80 µM (inactive)

Requested field: IC50. Item: "COc1ccc(CC(=O)Nc2cccc(-c3ccc4nnc(C)n4n3)c2)cc1" 71.7 µM (inactive)

* * *

Tested on: 697B cells, BCR-induced NF-kB luciferase reporter luminescence
test_method_notes: inhibitors of BCR-induced NF-kB activation, dose response, 697B cells, luciferase luminescence (AID 489023)
The source made the active and inactive calls. The rule behind the calls is not given here.
Write down the outcome that applies. Available outcomes: TRUE for active, FALSE for inactive

For "COc1ccc(NC(=O)c2cc3c(Cl)nc4ccccc4c3s2)cc1OC" , which call appears in the assay record? FALSE

Record lookup: outcome of this test for "Cc1cc(C)nc(Sc2ccc([N+](=O)[O-])cc2[N+](=O)[O-])n1" ? TRUE

GET /call?item= "Cc1cc(C)cc(NC(=O)c2nnn(Cc3cc(C)ccc3C)c2N)c1" returns the recorded outcome of this test. FALSE

Look up the recorded call for "O=C(c1cc2nc(-c3ccccc3)cc(-c3ccccc3)n2n1)N1CCN(C(=O)c2ccco2)CC1" in this test. TRUE

Write down the call the test reported for this molecule. Item: "CC(=C/c1ccco1)/C=N/NC(=O)CSc1nnc(SCc2ccc(C)cc2)s1" FALSE

Name the outcome recorded for "CCOc1ccc(-c2nc(CSCC(=O)NCc3ccco3)c(C)o2)cc1" in the assay. TRUE

Would you mind telling me which call this test gave "CCOc1ccc(/C=C2\SC(=S)N(CCCC(=O)NCCCN3CCOCC3)C2=O)cc1" ? TRUE

Dear colleague, could you share the recorded outcome for "CCOc1ccc(-c2noc(CCC(=O)O)n2)cc1" when you have a moment? TRUE

Hi team, can someone confirm the assay call for "CC(C)(C)c1ccc(-c2noc(CCC(=O)NCc3ccco3)n2)cc1" ? TRUE

Look up the recorded call for "COc1ccc(-n2c(-c3ccc(Cl)cc3)c[n+]3c2CCc2ccccc2-3)cc1" in this test. FALSE
